Assay: chemical genetic growth profiling, strain panel (AID 1159580);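 note: tested at 20 µM; growth read once vehicle control cultures reached saturation at 30 °C; 1 = growth at the plate median or of vehicle wells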
Conditions: S. cerevisiae deletion strains, growth OD, locus YGR052W, strain FMP48, active compounds read low
Screen size: about 5,500 compounds; about 2,000 (36%) were called active. Roughly 18% stayed inconclusive and do not appear here. Some of the results follow.
One threshold, 0.8, splits the recorded normalized growth values: lower ones are true (1), equal or higher ones are false (0).

Report whether reported normalized growth is lower than 0.8 (strictly) for COCCOc1ccccc1NC(=S)SCCSC(=S)Nc1ccccc1OCCOC
false (0)

Report whether reported normalized growth is lower than 0.8 (strictly) for COc1ccccc1C(C[N+](=O)[O-])c1c(N)n(C)c(=O)n(C)c1=O (stereo not given)
true (1)

Threshold test, normalized growth < 0.8: CCOC(=O)CCc1cc(N=Cc2cc(Br)ccc2O)c(O)c(N=Cc2cc(Br)ccc2O)c1
true (1)

API: query returns whether the molecule falls strictly under 0.8 in normalized growth. Query: CSc1cccc(N2C(=O)CC(c3c(Cl)cccc3Cl)CC2=O)c1
false (0)

Confirm or reject: normalized growth of CCc1cc2c(cc1-c1csc(C/C(N)=N\O)n1)C(C)(C)CCC2(C)C lies strictly below 0.8
true (1)

* * *

Assay: chemical genetic growth profiling, strain panel (AID 1159580);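 note: tested at 20 µM; growth read once vehicle control cultures reached saturation at 30 °C; 1 = growth at the plate median or of vehicle wells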
Details: S. cerevisiae deletion strains, growth OD, locus YAL030W, strain snc1
In all, about 5,500 compounds went through this assay and about 2,000 (36%) were called active. Another 18% or so got no clear call; they are omitted. Rule as the data show it: active = normalized growth mostly below about 0.91 (no sharp cut-off); inconclusive = no clear call, values can overlap the other calls; inactive = mostly above about 0.92. The list shows a part of the results.
Result category, one only: active, inactive

Just curious, what result did C[C@]12CCC3c4ccc(OS(=O)(=O)O)cc4CCC3C1CCC2=O (stereo partly specified) get here?
inactive

Record request — test call for O=C1O[C@@H](CO)[C@H](O)[C@@H](O)[C@@H]1O
inactive

Recorded test outcome, item c1cc2c(cc1[C@H]1OC[C@H]3[C@@H]1CO[C@H]3c1ccc3c(c1)OCO3)OCO2
active

Per the assay record, what outcome was assigned to c1ccc2[nH]c(-c3cscn3)nc2c1 ?
inactive

Returns: the outcome recorded for NCc1ccc(S(N)(=O)=O)cc1 in this assay.
inactive

Hey, what did the test say about Cc1cccc(CN2CCN(C(c3ccccc3)c3ccc(Cl)cc3)CC2)c1 (stereo unspecified) ?
active

Look up the recorded call for Nc1nc(N)c2nc(CNc3ccc(C(=O)NC(CCC(=O)O)C(=O)O)cc3)cnc2n1 (stereo unspecified) in this test.
inactive

Check the results log: what was the call for O=C1OCCN1/N=C\c1ccc([N+](=O)[O-])o1 ?
inactive

What did this assay record as the result for CCOC(N)=O ?
inactive

Can you look up the reported call for C=CCc1cc(OC)c2c(c1OC)OCO2 for me?
inactive

Recorded call for O=c1cccc2n1C[C@H]1CNCC2C1 ?
inactive

Which outcome was assigned to O=C1N=C(O)CN1/N=C\c1ccc(-c2ccc([N+](=O)[O-])cc2)o1 in this test?
inactive

What did this assay record as the result for CCn1cc(C(=O)O)c(=O)c2cc3c(cc21)OCO3 ?
inactive

Can you look up the reported call for O=C(O)c1cc(O)c(O)c(O)c1 for me?
inactive

Hi, do you know how O=C1CN(/N=C\c2ccc([N+](=O)[O-])o2)C(=O)N1 came out in this test?
inactive

Call for entry C[C@](N)(Cc1ccc(O)c(O)c1)C(=O)O :
inactive

How was NC(=O)c1cc[n+](CC2=C(C(=O)O)N3C(=O)C(NC(=O)C(c4ccccc4)S(=O)(=O)[O-])C3SC2)cc1 (stereo unspecified) classified in this test?
inactive

Could you kindly confirm the outcome this assay logged for C[C@@H]1C[C@@H]([C@H](O)CC2CC(=O)NC(=O)C2)C(=O)[C@@H](C)C1 ?
active

Hi, sorry to bother you, what did the test record for CC[C@]12CCCN3CCc4c(n(c5ccccc45)[C@](O)(C(=O)OC)C1)[C@@H]32 ?
inactive

Per the assay record, what outcome was assigned to CC1=C(/C=C/C(C)=C/C=C/C(C)=C/C(=O)O)C(C)(C)CCC1 ?
inactive

Returns: the outcome recorded for CC1=C(/C=C/C(C)=C/C=C/C(C)=C\C(=O)O)C(C)(C)CCC1 in this assay.
inactive

Any idea what this test logged for CCn1cc(C(=O)O)c(=O)c2cnc(N3CCNCC3)nc21 ?
inactive

Look up the recorded call for C[C@H](COc1ccccc1)N[C@H](C)[C@H](O)c1ccc(O)cc1 in this test.
inactive

Which result was noted for this compound in the test: CC1=C(/C=C/C(C)=C/C=C/C(C)=C/C=C/C=C(C)/C=C/C=C(C)/C=C/C2=C(C)CCCC2(C)C)C(C)(C)CCC1
inactive

Outcome logged for Nc1nc2c(c(=O)[nH]1)N(C=O)C(CNc1ccc(C(=O)N[C@@H](CCC(=O)O)C(=O)O)cc1)CN2 (stereo partly specified) in this assay:
inactive

Test call for this compound, please: OC1CCCCC1N1CCC(c2ccccc2)CC1 (stereo unspecified)
inactive

Any idea what this test logged for CC1(C)CC2C1CCC1(C)OC2(C)CCC1O (stereo unspecified) ?
inactive

I'd appreciate the recorded outcome for CC(=O)O[C@H]1CC[C@@]2(C)C(=CCC3C2CC[C@@]2(C)C3CC[C@@H]2C(C)CCCC(C)C)C1 (stereo partly specified) from this test.
inactive

Give the logged outcome of this assay for the following compound: CC[C@]12CCCN3CCc4c(n(c5ccccc45)C(=O)C1)[C@@H]32
inactive

What classification did O=C(O)CCC(=O)c1ccc(-c2ccccc2)cc1 end up with in this test?
inactive

Which outcome was entered for the compound Oc1ccc(/C=C/c2cc(O)cc(O)c2)cc1 in this test?
inactive

Check the results log: what was the call for CCOc1ccc2c(c1)C(C)=CC(C)(C)N2 ?
inactive

Any idea what this test logged for CCCCC(CC)CN=C(N)NC(N)=NCCCCCCN=C(N)NC(N)=NCC(CC)CCCC (stereo unspecified) ?
active

Given C=CCN1CC[C@]23c4c5ccc(O)c4OC2C(=O)CC[C@@]3(O)[C@H]1C5 (stereo partly specified) , state the outcome it received in this test.
inactive

Can you look up the reported call for CC(COc1ccccc1)N(CCCl)Cc1ccccc1 (stereo unspecified) for me?
inactive

In this assay, the call recorded for O=C(O)c1cc(=O)c(O)c2c(O)c(O)c(O)cc2c1 was what?
active

Please state the recorded outcome for this compound: COC(=O)[C@H]1[C@H]2C[C@@H]3c4[nH]c5cc(OC)ccc5c4CCN3C[C@H]2C[C@@H](OC(=O)c2cc(OC)c(OC)c(OC)c2)[C@@H]1OC
inactive

Entry O=C(O)c1cc(=O)c(O)c2c(O)c(O)ccc2c1 : call = ?
inactive

What classification did COc1cc(/C=C/C(=O)O)cc(OC)c1OC end up with in this test?
inactive

GET /call?item= COc1ccc(/C=C/C(=O)c2cc(O)ccc2O)cc1 returns the recorded outcome of this test.
active

Can you look up the reported call for O=C(O)CNCP(=O)(O)O for me?
inactive

Returns: the outcome recorded for COc1cc(/C=C/C(=O)O)ccc1O in this assay.
inactive

Query: recorded result category for C[C@](N)(Cc1ccc(O)cc1)C(=O)O in this test
inactive

Call for entry Nc1ccc(S(=O)(=O)Nc2nccs2)cc1 :
inactive

Could you please tell me the result logged for CCn1cc(C(=O)O)c(=O)c2ccc(C)nc21 in this assay?
active

Write down the call the test reported for this compound. Item: CC[C@@H](C(=O)[C@@H](C)[C@@H](O)[C@H](C)[C@@H]1O[C@@H]([C@@H](CC)C(=O)O)CC[C@@H]1C)[C@H]1OC2(C=C[C@@H](O)[C@]3(CC[C@@](C)([C@H]4CC[C@](O)(CC)[C@H](C)O4)O3)O2)[C@H](C)C[C@@H]1C (stereo partly specified)
active

* * *

Test: chemical genetic growth profiling, strain panel (AID 1159580);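 note: tested at 20 µM; growth read once vehicle control cultures reached saturation at 30 °C; 1 = growth at the plate median or of vehicle wells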
Conditions: S. cerevisiae deletion strains, growth OD, locus YDR318W, strain mcm21, active compounds read low
Screen size: about 5,500 compounds; about 2,000 (36%) were called active. Not shown: some 18% with an inconclusive outcome. Some of the results follow.
Please respond with reported normalized growth for every item in the list.
// return just the number, without any unit appended

State the recorded normalized growth for this entry: COc1ccc(C[C@H](N)C(=O)N[C@@H]2[C@@H](CO)OC(n3cnc4c(N(C)C)ncnc43)[C@@H]2O)cc1 (stereo not given in full)
1.02

What value of normalized growth has been recorded for this entry: CC[C@]12CCCN3CCc4c(n(c5ccccc45)[C@](O)(C(=O)OC)C1)[C@@H]32
1

Form field: reported normalized growth of CCCSP(=O)(OCC)SCCC
0.995

I have this compound here, COc1c(C(=O)O)ccc2c1CCC(C)(C)O2 , and I need its recorded normalized growth.
0.987

What measured normalized growth goes with CC1=C(/C=C/C(C)=C/C=C/C(C)=C\C(=O)O)C(C)(C)CCC1 ?
0.97

Reported normalized growth for O=C(O)P(=O)(O)O : what is it?
0.976

Item under review: CCOC(N)=O . Reported normalized growth?
1.02

Query: normalized growth; subject: Nc1c(Br)cc(Br)cc1CNC1CCC(O)CC1 (stereo not given)
1

I have this compound here, NC(=O)c1cc[n+](CC2=C(C(=O)O)N3C(=O)C(NC(=O)C(c4ccccc4)S(=O)(=O)[O-])C3SC2)cc1 (stereo not given) , and I need its recorded normalized growth.
0.986

Reported normalized growth, compound Nc1nccs1 : ____
0.989

// query normalized growth value for entry CC(=O)N[C@@H]1[C@@H](C(O)[C@H](O)CO)O[C@](O)(C(=O)O)C[C@@H]1O (stereo not given in full)
1.01

What measured normalized growth goes with Nc1ccc(S(=O)(=O)Nc2nccs2)cc1 ?
0.985

State the recorded normalized growth for this entry: COc1ccc2c(c1O)-c1c(OC)c(OC)cc3c1[C@H](C2)N(C)CC3
1.01

Requested read-out: normalized growth. Entry: O=C(O)c1cc(O)c(O)c(O)c1
1.04

For the compound CC(Cc1ccc(O)c(O)c1)(NN)C(=O)O (stereo not given) , what normalized growth is on record?
1.01

What does the record list as normalized growth for CCOC(=O)c1ccc(N)cc1 ?
0.994

// normalized growth lookup, key: CC(=O)O[C@H]1CC[C@@]2(C)C(=CCC3C2CC[C@]2(C)C(=O)CCC32)C1 (stereo not given in full)
0.844

Can you share its normalized growth? I mean this compound: CC[C@]12CCCN3CCc4c(n(c5ccccc45)C(=O)C1)[C@@H]32
0.978

Reported normalized growth for CCOC(=O)C1=C[C@]2(CC)CCCN3CCc4c(n1c1ccccc41)[C@@H]32 : what is it?
0.969

I would be grateful if you could share the reported normalized growth for CN=C1CN(O)C(c2ccccc2)=c2cc(Cl)ccc2=N1 .
1.01

Suppose we examine the compound COc1ccc(/C=C/c2cc(O)cc(O[C@@H]3O[C@H](CO)[C@@H](O)[C@H](O)[C@H]3O)c2)cc1O ; what normalized growth value has been reported?
1.03

Query (compound): O=c1cccc2n1C[C@H]1CNCC2C1 ; field requested: normalized growth
0.996

Quick one: normalized growth of CCOP(=S)(OCC)Oc1ccc2c(C)c(Cl)c(=O)oc2c1 ?
0.976

Tell me the measured normalized growth of COc1cc(O)cc(/C=C/c2ccccc2)c1 , please.
0.805

Recorded normalized growth of COc1cc2c(cc1O)CC1c3c(cc(O)c(OC)c3-2)CCN1C (stereo not given) , please.
1

If you can, please state the reported normalized growth value of O=C1O[C@@H](CO)[C@H](O)[C@@H](O)[C@@H]1O .
1.01

Can you look up the measured normalized growth of CC(=O)OC/C=C(C)/C=C/C=C(C)/C=C/C1=C(C)CCCC1(C)C for me?
1

GET /values?readout=normalized growth&item= CC(C)C1=CC2=CCC3[C@](C)(CCC[C@]3(C)C(=O)O)C2CC1 (stereo not given in full)
0.925

Recorded normalized growth of C[C@@H]1CC2C3CCC4=CC(=O)C=C[C@]4(C)[C@@]3(F)[C@@H](O)C[C@]2(C)[C@@]1(O)C(=O)COP(=O)(O)O (stereo not given in full) , please.
0.992

Reported normalized growth, compound C[C@@]12C(=O)OC(=O)[C@]1(C)C1CCC2O1 : ____
0.681

Can you look up the measured normalized growth of CC1(C)CC2C1CCC1(C)OC1CCC2(C)O (stereo not given) for me?
1.04

Using the record for CCn1cc(C(=O)O)c(=O)c2ccc(C)nc21 , report its normalized growth.
0.963

Which value of normalized growth has been reported for CC[C@@H]1[C@@H](O)N2C3C[C@H]1C1C(O)[C@]4(C[C@@H]12)c1ccccc1N(C)[C@@H]34 (stereo not given in full) in the records?
0.972

Would you kindly share the measured normalized growth for COc1ccccc1-c1cc(=O)c2c(OC)cccc2o1 ?
0.935

What does the data say about its normalized growth? Entry: CCOP(=S)(OCC)SCSP(=S)(OCC)OCC
0.981

Entry under review: C/C=C/c1ccc(OC)cc1 . Reported normalized growth?
1

Record request: normalized growth value, item CCn1cc(C(=O)O)c(=O)c2cnc(N3CCCC3)nc21
1

Which value of normalized growth has been reported for CCOP(=S)(OCC)SCSCC in the records?
1.01

I am curious: what normalized growth value has been reported for CN(Cc1cc(Br)cc(Br)c1N)C1CCCCC1 ?
0.982

Can you share its normalized growth? I mean this compound: Oc1cc(O)cc(/C=C/c2ccccc2)c1
0.965

Query: normalized growth; subject: C=CC1=C(C)/C(=C/c2[nH]c(Cc3[nH]c(/C=C4\NC(=O)C(C)=C4C=C)c(C)c3CCC(=O)O)c(CCC(=O)O)c2C)NC1=O
1.02

Sample CC(=O)O[C@H]1C[C@@H](OC(C)=O)C(C)(C)C2C[C@@H](OC(C)=O)[C@]3(C)C(CC[C@@]4(C)[C@H](c5ccoc5)C(=O)[C@H]5O[C@]543)[C@]21C (stereo not given in full) — what was its normalized growth?
1.01

Look up normalized growth: CC(=O)OCC(=O)[C@@]12OC(C)(C)O[C@@H]1CC1C3C[C@H](F)C4=CC(=O)C=C[C@]4(C)[C@@]3(F)[C@@H](O)C[C@@]12C (stereo not given in full)
1.02

Find the recorded normalized growth belonging to COc1ccccc1N1CCNCC1 and report it.
1.03

# query: normalized growth of entry O=C(O)CNCP(=O)(O)O
1.02
